Exercise: state measured IC50 for each of the compounds provided.
System: 3T3-L1 mouse adipocyte cells
Procedure text: Adipogenesis inhibitory assay (Oil Red-O staining)
Format: cell-based
Conditions: Mus musculus; 3T3-L1, Oil Red-O, OD 492 nm; read-out: IC50, inhibition of adipogenesis
Your answer should be a plain number; it is taken to be in µM.

Look up and state reported IC50 for Oc1ccc(/C=C/c2cc(O)cc(O)c2)cc1 [Resveratrol, 3,4′,5-trihydroxy-trans-stilbene]
25

Look up and state reported IC50 for COc1cc(/C=C/c2ccc(O)c(O)c2)cc(OC)c1 [3-hydroxypterostilbene]
0.00483

---

Exercise: state measured activation at 1 µg/mL for each of the compounds provided.
System name: SIRT1 polypeptide (Homo sapiens)
Construct: purchased Cayman Chemical Company 10010401
Sequence (Q96EB6 1-747): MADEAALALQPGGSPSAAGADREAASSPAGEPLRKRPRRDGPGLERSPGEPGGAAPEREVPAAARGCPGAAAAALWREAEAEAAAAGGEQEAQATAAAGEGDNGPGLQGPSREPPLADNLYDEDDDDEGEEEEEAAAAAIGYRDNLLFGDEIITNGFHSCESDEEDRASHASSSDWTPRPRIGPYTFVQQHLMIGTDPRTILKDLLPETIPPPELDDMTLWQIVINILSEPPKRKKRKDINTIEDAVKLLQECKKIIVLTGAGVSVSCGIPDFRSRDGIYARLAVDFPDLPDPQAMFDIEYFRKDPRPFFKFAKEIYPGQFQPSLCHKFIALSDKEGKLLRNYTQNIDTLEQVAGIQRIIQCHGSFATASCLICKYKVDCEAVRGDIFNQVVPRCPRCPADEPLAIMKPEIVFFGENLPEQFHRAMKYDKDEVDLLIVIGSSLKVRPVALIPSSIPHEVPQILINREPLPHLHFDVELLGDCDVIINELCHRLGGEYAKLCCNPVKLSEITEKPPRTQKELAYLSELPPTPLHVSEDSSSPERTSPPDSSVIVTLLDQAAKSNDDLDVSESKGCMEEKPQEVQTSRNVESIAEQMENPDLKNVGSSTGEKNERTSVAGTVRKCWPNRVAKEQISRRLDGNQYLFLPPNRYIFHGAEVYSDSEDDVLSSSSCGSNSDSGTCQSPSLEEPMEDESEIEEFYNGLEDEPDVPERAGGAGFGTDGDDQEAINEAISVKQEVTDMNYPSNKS
Procedure text: SIRT 1 Direct fluorescent Screening Assay kit (Cayman)
Format: biochemical
Conditions: 1 μg/ml; read-out: Percentage SIRT 1 modulation

Look up and state reported activation at 1 µg/mL for COc1cc(/C=C/c2ccc(O)c(O)c2)cc(OC)c1 [3-hydroxypterostilbene]
224%

Look up and state reported activation at 1 µg/mL for Oc1cc(O)cc(/C=C/c2ccc(O)cc2O)c1 [Oxyresveratrol, trans-2,3′,4,5′-tetrahydroxystilbene]
77.8%

Look up and state reported activation at 1 µg/mL for CC(NC(=O)c1ccccc1/N=C/c1c(O)ccc2ccccc12)c1ccccc1 (centres unmarked)
64.4%

Look up and state reported activation at 1 µg/mL for Oc1ccc(/C=C/c2cc(O)cc(O)c2)cc1 [Resveratrol, 3,4′,5-trihydroxy-trans-stilbene]
138%

Look up and state reported activation at 1 µg/mL for COc1cc(C=Cc2ccc(O)cc2)cc(OC)c1 [Pterostilbene, 3,5-dimethoxy-4′-hydroxystilbene]
2.22%

---

Exercise: state measured activation at 10 µg/mL for each of the molecules provided.
System name: SIRT1 polypeptide (Homo sapiens)
Construct: purchased Cayman Chemical Company 10010401
Procedure text: SIRT 1 Direct fluorescent Screening Assay kit (Cayman)
Assay type: biochemical
Conditions: 10 μg/ml; read-out: Percentage SIRT 1 modulation
Your answer should be a plain number; it is taken to be in %.

Under SIRT1 polypeptide (Homo sapiens), report activation at 10 µg/mL for COc1cc(C=Cc2ccc(O)cc2)cc(OC)c1 [Pterostilbene, 3,5-dimethoxy-4′-hydroxystilbene]
11.1

Under SIRT1 polypeptide (Homo sapiens), report activation at 10 µg/mL for COc1cc(/C=C/c2ccc(O)c(O)c2)cc(OC)c1 [3-hydroxypterostilbene]
669

Under SIRT1 polypeptide (Homo sapiens), report activation at 10 µg/mL for Oc1cc(O)cc(/C=C/c2ccc(O)cc2O)c1 [Oxyresveratrol, trans-2,3′,4,5′-tetrahydroxystilbene]
24.4

Under SIRT1 polypeptide (Homo sapiens), report activation at 10 µg/mL for Oc1ccc(/C=C/c2cc(O)cc(O)c2)cc1 [Resveratrol, 3,4′,5-trihydroxy-trans-stilbene]
291

---

Procedure text: in vivo
Conditions: both sexes, Sprague Dawley, rat, po
Procedure: Repeated dose 90 day Oral toxicity study for 3HPT in Sprague Dawley rats: The study was conducted to evaluate the possible health hazards likely to arise from repeated exposure to 3HPT over a relatively limited period of time. The study was conducted in six groups consisting of 120 rats with 60 males and 60 females. […] Body weights and food consumptions were recorded at weekly intervals. […]
Measure: NOAEL at 90 days (mg/kg)
Your answer should be a plain number; it is taken to be in mg/kg.

Look up and state reported NOAEL at 90 days for COc1cc(/C=C/c2ccc(O)c(O)c2)cc(OC)c1 [3-hydroxypterostilbene]
200
